tested on: UACC-62 melanoma; test: NCI tumour cell line growth inhibition, 48 h; in the data active = GI50 below about 0.43 µM; inactive = the rest
Possible outcomes: 1 (yes) = active, 0 (no) = inactive

* CCS(=O)(=O)c1ccc(OC)c(Nc2ncc(-c3cccc(C(C)=O)c3)o2)c1 | 0 (no)
* COc1cc(OC)c(/C=C/C(=O)c2c(OC)cccc2OC)c(OC)c1 | 1 (yes)
* CC/C=C\C[C@@H]1C/C=C2/C(=O)C=C[C@H]2C/C=C\CCCC(=O)O1 | 0 (no)
* COc1ccc2c(c1)C(=O)c1c-2n(CCCn2ccnc2)c(=O)c2ccccc12 | 1 (yes)
* COc1cc[nH]c1/C=C1\C(=O)Nc2ccccc21 | 0 (no)
* NCCCC[C@@H]1NC(=O)[C@H]2CCCN2C(=O)[C@H](Cc2ccccc2)NC(=O)[C@H](Cc2ccccc2)CNC1=O | 0 (no)
* Cc1cc(C)c(C(=O)CC(=O)c2cccnc2)c(C)c1 | 0 (no)
* CCC1(O)C(=O)OCc2c1cc1n(c2=O)Cc2cc3ccc(C=O)cc3nc2-1 (stereo not drawn) | 0 (no)
* CCOC(=O)Sc1ncnc2nc[nH]c12 | 0 (no)
* CC1CN1CC(O)C(O)CN1CC1C (stereo not drawn) | 0 (no)
* COc1cc(C2=NN(C(C)=O)C(c3ccc(OC(C)=O)cc3OC(C)=O)O2)c(OC(C)=O)c2ccccc12 (stereo not drawn) | 0 (no)
* O=C(CCl)Nc1ccc(Cl)cc1 | 0 (no)
* Cc1ccc(C(=NN=C(N)N)c2ccc(C)cc2)cc1 | 0 (no)
